SYSTEM_TESTED: p38α-kinase (Homo sapiens, UniProt Q16539)
Construct: purchased Promega Corporation
Sequence (Q16539 whole entry): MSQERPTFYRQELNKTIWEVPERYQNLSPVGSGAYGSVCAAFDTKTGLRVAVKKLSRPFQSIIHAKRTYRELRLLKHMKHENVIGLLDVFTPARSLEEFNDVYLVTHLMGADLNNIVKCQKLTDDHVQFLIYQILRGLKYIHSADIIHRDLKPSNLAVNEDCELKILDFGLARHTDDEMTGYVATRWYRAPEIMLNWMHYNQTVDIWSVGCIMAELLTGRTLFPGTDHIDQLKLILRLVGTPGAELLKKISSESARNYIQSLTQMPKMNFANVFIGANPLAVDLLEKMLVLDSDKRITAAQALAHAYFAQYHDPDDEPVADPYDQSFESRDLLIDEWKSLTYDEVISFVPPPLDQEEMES
TEST_DESCRIPTION: p38α Kinase Enzyme System, ADP-Glo luminescence
Format: biochemical
READOUT: inhibition at 2.5 µM (%)

CCCCCC(/C=C/[C@H]1CC[C@@H](O)[C@@H]1C/C=C\CCCC(=O)OC)OC(C)=O (some centres unmarked) : 37
CCCCCC(/C=C/[C@H]1C=CC(=O)[C@@H]1C/C=C\CCCC(=O)OC)OC(C)=O (some centres unmarked) : 42
CCCCCC(O)/C=C/[C@H]1C=CC(=O)[C@@H]1C/C=C\CCCC(=O)O (some centres unmarked) : 49
CCCCCC(/C=C/[C@H]1CC[C@H](O)[C@@H]1C/C=C\CCCC(=O)OC)OC(C)=O (some centres unmarked) : 37
CCCCC[C@@H](O)/C=C/[C@H]1CCC(O)[C@@H]1C/C=C\CCCCO (some centres unmarked) [Compound 5, (5Z,13E)-1,9,15-triol-prosta-5,13-diene] : 39

---

SYSTEM_TESTED: Src-kinase (Homo sapiens)
Construct: purchased Promega Corporation
Sequence (P12931 whole entry): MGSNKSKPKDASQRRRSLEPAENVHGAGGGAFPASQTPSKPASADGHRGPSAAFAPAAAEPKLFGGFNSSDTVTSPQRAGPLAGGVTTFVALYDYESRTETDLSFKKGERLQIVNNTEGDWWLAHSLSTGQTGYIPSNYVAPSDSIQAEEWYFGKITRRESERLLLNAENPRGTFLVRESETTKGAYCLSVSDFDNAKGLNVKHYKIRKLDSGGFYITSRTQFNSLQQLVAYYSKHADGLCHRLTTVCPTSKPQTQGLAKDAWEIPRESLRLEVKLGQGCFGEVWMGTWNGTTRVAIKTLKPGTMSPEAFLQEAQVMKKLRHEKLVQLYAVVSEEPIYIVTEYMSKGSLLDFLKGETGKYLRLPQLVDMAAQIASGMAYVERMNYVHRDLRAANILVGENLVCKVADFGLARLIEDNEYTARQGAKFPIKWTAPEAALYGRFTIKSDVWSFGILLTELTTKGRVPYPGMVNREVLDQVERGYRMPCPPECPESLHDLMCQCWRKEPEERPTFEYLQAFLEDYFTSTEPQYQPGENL
TEST_DESCRIPTION: Src Kinase Enzyme System, ADP-Glo luminescence
Type: biochemical
MEASUREMENT_PARAMETERS: at 2.5 μM
Measured inhibition at 2.5 µM of individual entries

Examples with answers:
CCCCCC(/C=C/[C@H]1CC[C@H](O)[C@@H]1C/C=C\CCCC(=O)OC)OC(C)=O (stereo partly drawn) : < 40%
CCCCCC(/C=C/[C@H]1CC[C@@H](O)[C@@H]1C/C=C\CCCC(=O)OC)OC(C)=O (stereo partly drawn) : < 40%

Turning to the following molecule.
Reported Src-kinase (Homo sapiens) inhibition at 2.5 µM for item CCCCCC(/C=C/[C@H]1C=CC(=O)[C@@H]1C/C=C\CCCC(=O)OC)OC(C)=O (stereo partly drawn) was < 40%

---

Measured IC50 of individual entries
Test system: MDA-MB-231 breast cancer cell line
TEST_DESCRIPTION: MTT cell proliferation assay, MDA-MB-231
Assay type: cell-based
MEASUREMENT_PARAMETERS: Homo sapiens, 48 h treatment, breast cancer cells

Examples with answers:
CCCCCC(/C=C/[C@H]1CC[C@@H](O)[C@@H]1C/C=C\CCCC(=O)OC)OC(C)=O (stereo partly drawn) : > 100 µg/mL
CCCCCC(/C=C/[C@H]1CC[C@H](O)[C@@H]1C/C=C\CCCC(=O)OC)OC(C)=O (stereo partly drawn) : > 100 µg/mL

Turning to the following molecule.
The reported value for CCCCC[C@@H](O)/C=C/[C@H]1CCC(O)[C@@H]1C/C=C\CCCCO (stereo partly drawn) [Compound 5, (5Z,13E)-1,9,15-triol-prosta-5,13-diene] in terms of IC50 is > 100 µg/mL
